Values from patent US12371428B2

# target-entity: Human KDR (residues 790-1356) (Homo sapiens (Human), UniProt P35968)
# Sequence (P35968 790-1356): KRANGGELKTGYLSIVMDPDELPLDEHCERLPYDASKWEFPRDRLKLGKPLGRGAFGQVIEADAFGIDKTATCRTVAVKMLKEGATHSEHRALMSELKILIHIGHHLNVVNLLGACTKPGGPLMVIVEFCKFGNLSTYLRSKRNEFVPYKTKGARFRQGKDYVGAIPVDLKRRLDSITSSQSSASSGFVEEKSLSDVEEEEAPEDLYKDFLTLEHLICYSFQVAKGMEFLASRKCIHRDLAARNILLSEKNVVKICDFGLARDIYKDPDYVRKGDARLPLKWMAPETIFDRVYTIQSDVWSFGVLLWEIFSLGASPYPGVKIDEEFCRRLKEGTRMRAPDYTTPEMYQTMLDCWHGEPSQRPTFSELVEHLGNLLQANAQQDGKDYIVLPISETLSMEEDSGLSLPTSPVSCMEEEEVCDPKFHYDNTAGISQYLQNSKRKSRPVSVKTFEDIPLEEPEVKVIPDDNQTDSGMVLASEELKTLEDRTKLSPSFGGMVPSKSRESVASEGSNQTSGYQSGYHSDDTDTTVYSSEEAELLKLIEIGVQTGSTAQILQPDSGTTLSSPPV
# assay: Human KDR kinase assay, HTRF KinEase (Example B-2)
# Assay type: biochemical
# settings: protocol of Example B-2 (other compounds)
Where a name gives a salt, the structure may show the parent alone.
metric-name: IC50

- compound: "COc1cc2nccc(Oc3ccc(NC(=O)c4cn(C)c(C)c(-c5ccc(F)cc5)c4=O)cc3F)c2nc1OC"
  metric-name: "IC50"
  test-value: "< 100 nM"
- compound: "COc1cc2nccc(Oc3ccc(NC(=O)c4c(C)ncc(-c5ccc(F)cc5)c4O)cc3F)c2nc1OC"
  metric-name: "IC50"
  test-value: "< 100 nM"
- compound: "COCc1nc(C)c(-c2ccc(F)cc2)c(O)c1C(=O)Nc1ccc(Oc2ccnc3cc(OC)cnc23)c(F)c1"
  metric-name: "IC50"
  test-value: "< 100 nM"
- compound: "Cc1nc(C)n(-c2ccc(F)cc2)c(=O)c1C(=O)Nc1ccc(Oc2ccnc3cc(OCc4ccccc4)cnc23)c(F)c1"
  metric-name: "IC50"
  test-value: "< 100 nM"
- compound: "COCCOc1ccc2nccc(Oc3ccc(NC(=O)c4ccc(C)n(-c5ccc(F)cc5)c4=O)cc3F)c2n1"
  metric-name: "IC50"
  test-value: "100 to 300 nM"
- compound: "COCCOc1nc2c(Oc3ccc(NC(=O)c4c(COC)nc(C)c(-c5ccc(F)cc5)c4O)cc3F)ccnc2cc1OC"
  metric-name: "IC50"
  test-value: "< 100 nM"
- compound: "COc1cc2nccc(Oc3ccc(NC(=O)c4c[nH]c(=O)n(-c5ccc(F)cc5)c4=O)cc3F)c2nc1OC"
  metric-name: "IC50"
  test-value: "< 100 nM"
- compound: "COc1cnc2c(Oc3ccc(NC(=O)c4c(C)ncc(-c5ccc(F)cc5)c4O)cc3F)ccnc2c1"
  metric-name: "IC50"
  test-value: "< 100 nM"
- compound: "COc1cc2nccc(Oc3ccc(NC(=O)c4ccc(C)n(-c5ccc(F)cc5)c4=O)cc3)c2nc1OC"
  metric-name: "IC50"
  test-value: "< 100 nM"
- compound: "COc1ccc2nccc(Oc3ccc(NC(=O)c4cn(C5CC5)c(C)c(-c5ccc(F)cc5)c4=O)cc3F)c2n1"
  metric-name: "IC50"
  test-value: "> 300 nM"
- compound: "COc1ccc2nccc(Oc3ccc(NC(=O)c4c(C)nc(C)c(-c5ccc(F)cc5)c4O)cc3)c2n1"
  metric-name: "IC50"
  test-value: "< 100 nM"
- compound: "COc1cc2nccc(Oc3ccc(NC(=O)c4c(C)ccn(-c5ccc(F)cc5)c4=O)cc3)c2nc1OC"
  metric-name: "IC50"
  test-value: "< 100 nM"
- compound: "CCOc1nc(C)c(-c2ccc(F)cc2)c(O)c1C(=O)Nc1ccc(Oc2ccnc3cc(OC)c(OC)nc23)c(F)c1"
  metric-name: "IC50"
  test-value: "> 300 nM"
- compound: "Cc1ccc(C(=O)Nc2ccc(Oc3ccnc4ccc(OCCN(C)C)nc34)c(F)c2)c(=O)n1-c1ccc(F)cc1"
  metric-name: "IC50"
  test-value: "> 300 nM"
- compound: "COc1cc2nccc(Oc3ccc(NC(=O)c4c(C)nc(O)c(-c5ccc(F)cc5)c4O)cc3F)c2nc1OC"
  metric-name: "IC50"
  test-value: "< 100 nM"
- compound: "COCc1ncc(C(=O)Nc2ccc(Oc3ccnc4cc(OC)c(OC)nc34)c(F)c2)c(O)c1-c1ccc(F)cc1"
  metric-name: "IC50"
  test-value: "< 100 nM"
- compound: "COc1ccc(-c2cn(C)cc(C(=O)Nc3ccc(Oc4ccnc5cc(OC)c(OC)nc45)c(F)c3)c2=O)cc1 [Compound 34, hydrochloride]"
  metric-name: "IC50"
  test-value: "< 100 nM"
- compound: "COc1cc2nccc(Oc3ccc(NC(=O)c4cnc(C(F)(F)F)c(-c5ccc(F)cc5)c4O)cc3F)c2nc1OC"
  metric-name: "IC50"
  test-value: "> 300 nM"
- compound: "COc1ccc2nccc(Oc3ccc(NC(=O)c4c(C)nc(C)c(-c5ccc(F)cc5)c4O)cc3F)c2n1"
  metric-name: "IC50"
  test-value: "< 100 nM"
- compound: "COc1cnc2c(Oc3ccc(NC(=O)c4c(C)nc(C)n(-c5ccc(F)cc5)c4=O)cc3F)ccnc2c1"
  metric-name: "IC50"
  test-value: "< 100 nM"
- compound: "C=Cc1cc2nccc(Oc3ccc(NC(=O)c4cnc(C)c(-c5ccc(F)cc5C)c4O)cc3F)c2nc1OC"
  metric-name: "IC50"
  test-value: "> 300 nM"
- compound: "COc1cc2nccc(Oc3ccc(NC(=O)c4cnc(C)c(-c5ccc(F)cc5)c4O)cc3)c2cc1OC"
  metric-name: "IC50"
  test-value: "< 100 nM"
- compound: "CCn1cc(C(=O)Nc2ccc(Oc3ccnc4cc(OC)cnc34)cc2)c(=O)c(-c2ccc(F)cc2)c1CO"
  metric-name: "IC50"
  test-value: "> 300 nM"
- compound: "COc1cc2nccc(Oc3ccc(NC(=O)c4ncc(C)n(-c5ccc(F)cc5C)c4=O)cc3F)c2nc1OC"
  metric-name: "IC50"
  test-value: "< 100 nM"
- compound: "COc1cc2nccc(Oc3ccc(NC(=O)c4ccc(C)n(-c5ccc(F)cc5C)c4=O)cc3)c2nc1OC"
  metric-name: "IC50"
  test-value: "< 100 nM"
- compound: "COc1ccc2nccc(Oc3ccc(NC(=O)c4c(C)cc(C)n(-c5ccc(F)cc5)c4=O)cc3)c2n1"
  metric-name: "IC50"
  test-value: "< 100 nM"
- compound: "CCn1cc(C(=O)Nc2ccc(Oc3ccnc4cc(OC)cnc34)c(F)c2)c(=O)c(-c2ccc(F)cc2)c1CO"
  metric-name: "IC50"
  test-value: "> 300 nM"
- compound: "COc1cc2nccc(Oc3ccc(NC(=O)c4cn(OC)cc(-c5ccc(F)cc5)c4=O)cc3)c2nc1OC"
  metric-name: "IC50"
  test-value: "< 100 nM"
